system: ATP; assay: switch fluorescence ratio, 500 uM ATP over buffer (Cy3 cluster intensity, sum of 5 cycles each) (fold (ratio)); higher = stronger signal-on switching upon ATP binding; sequences stand for … in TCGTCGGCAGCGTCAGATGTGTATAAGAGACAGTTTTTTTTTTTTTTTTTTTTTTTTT…TC; conditions: aptamer strand: ATP DNA aptamer (quencher-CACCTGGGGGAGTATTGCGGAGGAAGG + anchor), 100 nM annealed; ATP concentration: 500 uM;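 note: ATP exposure 15 min at 22 °C before imaging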
Is switch fluorescence ratio at least 1? Then T. If not, F.

Query: Does CAACAGAGTG have a reported switch fluorescence ratio of at least 1?
Reply: T

Query: And the next one, GACGTGGGGC ?
Reply: T

Query: And the next one, AGTCTAAGTG ?
Reply: F

Query: And the next one, CGGTTAAAGC ?
Reply: F

Query: And the next one, TTACGGTGAC ?
Reply: T

Query: And the next one, TACGAACTAT ?
Reply: T

Query: And the next one, TCTTTGTTAC ?
Reply: T

Query: And the next one, TTTTGCAATT ?
Reply: T

Query: And the next one, GGGTAAATCT ?
Reply: T

Query: And the next one, ACCAGTGAGT ?
Reply: F

Query: And the next one, ACGGTCAGTC ?
Reply: T

Query: And the next one, TCATAAAGGG ?
Reply: T

Query: And the next one, GAGACGTTTT ?
Reply: F

Query: And the next one, TGCAATTCAG ?
Reply: T

Query: And the next one, CGTATATGGC ?
Reply: T

Query: And the next one, ATCGCGAGGA ?
Reply: T

Query: And the next one, TAAACCGATG ?
Reply: T

Query: And the next one, GTACCCTCAA ?
Reply: T

Query: And the next one, AGGAGCATTT ?
Reply: T

Query: And the next one, TTGTTGCTTA ?
Reply: T

Query: And the next one, TTCCCGGGGG ?
Reply: T

Query: And the next one, GGAAACTGGT ?
Reply: T

Query: And the next one, GGGCAATTAG ?
Reply: T

Query: And the next one, CTCAGGATGT ?
Reply: T

Query: And the next one, GAGAGGTTCG ?
Reply: F

Query: And the next one, TGACGGGGCG ?
Reply: T

Query: And the next one, TGGGTAATCC ?
Reply: T

Query: And the next one, GGTGTTGTCT ?
Reply: T

Query: And the next one, GAGAAGAGGC ?
Reply: T

Query: And the next one, CGTCTGGTGC ?
Reply: T

Query: And the next one, GTAAGCAAAG ?
Reply: T

* * *

Exercise: state measured switch fluorescence ratio for each of the sequences provided.
test system: ATP; assay: switch fluorescence ratio, 500 uM ATP over buffer (Cy3 cluster intensity, sum of 5 cycles each) (fold (ratio)); higher = stronger signal-on switching upon ATP binding; sequences stand for … in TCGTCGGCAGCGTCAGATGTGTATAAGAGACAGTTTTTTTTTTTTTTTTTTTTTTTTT…TC; settings: aptamer strand: ATP DNA aptamer (quencher-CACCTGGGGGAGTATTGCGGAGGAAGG + anchor), 100 nM annealed; ATP concentration: 500 uM;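 note: ATP exposure 15 min at 22 °C before imaging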
Form: value (number only, do not type unit).

Query: Consider the sequence shown here: TAGAAAAAGC What is its recorded switch fluorescence ratio?
Reply: 0.972

Query: And the next one, AAAATCAAAT ?
Reply: 1.02

Query: And the next one, ATGGAAGGGA ?
Reply: 1.15

Query: And the next one, GGAAACGCGA ?
Reply: 1.54

Query: And the next one, CATGTTTGGT ?
Reply: 0.987

Query: And the next one, GGTGGCCCAA ?
Reply: 1

Query: And the next one, GCCAAAGGTG ?
Reply: 1.72

Query: And the next one, GTGAGATTGC ?
Reply: 0.957

Query: And the next one, CCGAGACCGC ?
Reply: 2.71

Query: And the next one, TTTCTGGTAA ?
Reply: 1.08

Query: And the next one, TTCGTTTGAA ?
Reply: 1

Query: And the next one, GTCGGGAGGT ?
Reply: 0.989

Query: And the next one, AGGTTGGGGC ?
Reply: 1.01

Query: And the next one, TGTGATATAT ?
Reply: 0.988

Query: And the next one, TTTTTGGTAG ?
Reply: 1

Query: And the next one, GCGGCTGATG ?
Reply: 1.02

Query: And the next one, TAAAGAGAGC ?
Reply: 1.01

Query: And the next one, ATACAGCACC ?
Reply: 1.45

Query: And the next one, GGTGGAATCT ?
Reply: 1.02

Query: And the next one, TGGAGGGTTG ?
Reply: 1

* * *

system: ATP; assay: switch fluorescence ratio, 500 uM ATP over buffer (Cy3 cluster intensity, sum of 5 cycles each) (fold (ratio)); higher = stronger signal-on switching upon ATP binding; sequences stand for … in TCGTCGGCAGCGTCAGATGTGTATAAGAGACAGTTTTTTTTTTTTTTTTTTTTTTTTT…TC; conditions: aptamer strand: ATP DNA aptamer (quencher-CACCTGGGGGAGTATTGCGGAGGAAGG + anchor), 100 nM annealed; ATP concentration: 500 uM;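 note: ATP exposure 15 min at 22 °C before imaging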
Exercise: state measured switch fluorescence ratio for each of the sequences provided.
Form: value (number only, do not type unit).

Query: Consider the sequence shown here: TTCGGAGTAC What is its recorded switch fluorescence ratio?
Reply: 1.38

Query: And the next one, CTAGTTAAGC ?
Reply: 0.989

Query: And the next one, ATATTAGGGG ?
Reply: 1.01

Query: And the next one, GCGACGGGAG ?
Reply: 1.01

Query: And the next one, ACATGAATGG ?
Reply: 0.969

Query: And the next one, TATGGGCATT ?
Reply: 0.998

Query: And the next one, CCTGAGTTC ?
Reply: 0.996

Query: And the next one, AGGTCTGCGG ?
Reply: 0.967

Query: And the next one, TTTAGTGCCT ?
Reply: 1.04

Query: And the next one, TTGGAGGCGA ?
Reply: 0.994

Query: And the next one, AAGTCTGGGG ?
Reply: 1.01

Query: And the next one, CGTAGTGTAG ?
Reply: 1.02

Query: And the next one, ATACGGTTTT ?
Reply: 0.996

Query: And the next one, GAGAGTATAT ?
Reply: 1.01

Query: And the next one, ATTGTGATCT ?
Reply: 0.989

Query: And the next one, CAAACAGTTT ?
Reply: 0.994

Query: And the next one, TAATGAGCTA ?
Reply: 0.987

Query: And the next one, GGGATGGGAA ?
Reply: 1.02

Query: And the next one, ATCTCTGGTC ?
Reply: 0.976

Query: And the next one, AGCGAAATTT ?
Reply: 1.04

Query: And the next one, TAGAAACGAG ?
Reply: 1.02

* * *

system: ATP; assay: switch fluorescence ratio, 500 uM ATP over buffer (Cy3 cluster intensity, sum of 5 cycles each) (fold (ratio)); higher = stronger signal-on switching upon ATP binding; sequences stand for … in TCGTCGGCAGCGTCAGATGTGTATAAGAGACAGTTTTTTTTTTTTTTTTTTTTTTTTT…TC; settings: aptamer strand: ATP DNA aptamer (quencher-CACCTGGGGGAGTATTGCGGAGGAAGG + anchor), 100 nM annealed; ATP concentration: 500 uM;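 note: ATP exposure 15 min at 22 °C before imaging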
metric_name: switch fluorescence ratio
Form: value (number only, do not type unit).

Query: Consider the sequence shown here: TCTGTAGTTG What is its recorded switch fluorescence ratio?
Reply: 0.997

Query: And the next one, AGGGGTAATA ?
Reply: 0.982

Query: And the next one, ATAGACTTTA ?
Reply: 1.04

Query: And the next one, TTTGGGAGCA ?
Reply: 0.988

Query: And the next one, CAAAAGTTGG ?
Reply: 0.992

Query: And the next one, TTGGTGTCGC ?
Reply: 1.02

Query: And the next one, TCCTTGGCTT ?
Reply: 1.47

Query: And the next one, GAATGCGGGC ?
Reply: 0.99

Query: And the next one, AATTTCACTT ?
Reply: 1

Query: And the next one, TATAAAGAGG ?
Reply: 0.987

Query: And the next one, GCATCGTCGG ?
Reply: 1.04

Query: And the next one, TGTATGGGGG ?
Reply: 0.946

Query: And the next one, AGTTGCTTGT ?
Reply: 1.01

Query: And the next one, ATTTGAAGGC ?
Reply: 0.963

Query: And the next one, AAGGACGGTG ?
Reply: 1

Query: And the next one, ACCGCGAAGG ?
Reply: 1.03

Query: And the next one, TATTGTCTTT ?
Reply: 1.02

Query: And the next one, TGCAGCATGA ?
Reply: 1.33

Query: And the next one, GCCTGTATTG ?
Reply: 0.982

Query: And the next one, GAAGACTACG ?
Reply: 1.04
